# Tgt: glucocorticoid receptor (Homo sapiens)
# Procedure details: Hep G2 TAT assay: induction of TAT by dexamethasone in HepG2 cells
One threshold, 500 nM, splits the recorded Ki values: lower ones are Met, equal or higher ones are Not met.

Some solved entries appear below for comparison.
- Compound: "CCOc1ccc(C2=CCC(c3[nH]c(=O)[nH]c(=O)c3Cc3ccccc3)CC2)c(F)c1Cl (stereo not drawn)"
  Discrete label: "Not met"
- Compound: "Cc1ccc(CO)cc1C1=CCC(c2[nH]c(=O)[nH]c(=O)c2Cc2ccccc2)CC1 (stereo not drawn)"
  Discrete label: "Met"
- Compound: "Cn1ncc2cccc(C3=CCC(c4[nH]c(=O)[nH]c(=O)c4Cc4ccccc4)CC3)c21 (stereo not drawn)"
  Discrete label: "Met"
- Compound: "CNS(=O)(=O)c1ccc(C2=CCC(c3[nH]c(=O)[nH]c(=O)c3Cc3ccccc3)CC2)c(C(F)(F)F)c1 (stereo not drawn)"
  Discrete label: "Met"
- Compound: "CN(C)c1ncc(C2=CCC(c3[nH]c(=O)[nH]c(=O)c3Cc3ccccc3)CC2)cn1 (stereo not drawn)"
  Discrete label: "Not met"
- Compound: "N#Cc1ccc(C2=CCC(c3[nH]c(=O)[nH]c(=O)c3Cc3ccccc3)CC2)c(C(F)(F)F)c1 (stereo not drawn)"
  Discrete label: "Met"
- Compound: "CS(=O)(=O)c1ccccc1C1=CCC(c2[nH]c(=O)[nH]c(=O)c2Cc2ccccc2)CC1 (stereo not drawn)"
  Discrete label: "Not met"
- Compound: "CC(C)S(=O)(=O)c1ccc(C2=CCC(c3[nH]c(=O)[nH]c(=O)c3Cc3ccccc3)CC2)c(F)c1 (stereo not drawn)"
  Discrete label: "Met"
- Compound: "CCn1nccc1C1=CCC(c2[nH]c(=O)[nH]c(=O)c2Cc2ccccc2)CC1 (stereo not drawn)"
  Discrete label: "Not met"
- Compound: "CCn1nc(C(F)(F)F)cc1C1=CCC(c2[nH]c(=O)[nH]c(=O)c2Cc2ccccc2)CC1 (stereo not drawn)"
  Discrete label: "Met"

Prompt: Quick check: does CN(C)S(=O)(=O)c1ccc(C2=CCC(c3[nH]c(=O)[nH]c(=O)c3Cc3ccccc3)CC2)c(F)c1 (stereo not drawn) have Ki under 500 nM?
Response: Not met

Prompt: Quick check: does CCOc1ccc(C2=CCC(c3[nH]c(=O)[nH]c(=O)c3Cc3ccccc3)CC2)c(F)c1F (stereo not drawn) have Ki under 500 nM?
Response: Met

Prompt: Quick check: does COc1ccccc1C1=CCC(c2[nH]c(=O)[nH]c(=O)c2Cc2ccccc2)CC1 (stereo not drawn) have Ki under 500 nM?
Response: Met

Prompt: Quick check: does COc1ccc(C2=CCC(c3[nH]c(=O)[nH]c(=O)c3Cc3ccccc3)CC2)c(C(F)(F)F)c1 (stereo not drawn) have Ki under 500 nM?
Response: Met

Prompt: Quick check: does Cn1nccc1C1=CCC(c2[nH]c(=O)[nH]c(=O)c2Cc2ccccc2)CC1 (stereo not drawn) have Ki under 500 nM?
Response: Met

----------
# Tgt: GR (Homo sapiens, UniProt P04150)
# Sequence (P04150 1-777): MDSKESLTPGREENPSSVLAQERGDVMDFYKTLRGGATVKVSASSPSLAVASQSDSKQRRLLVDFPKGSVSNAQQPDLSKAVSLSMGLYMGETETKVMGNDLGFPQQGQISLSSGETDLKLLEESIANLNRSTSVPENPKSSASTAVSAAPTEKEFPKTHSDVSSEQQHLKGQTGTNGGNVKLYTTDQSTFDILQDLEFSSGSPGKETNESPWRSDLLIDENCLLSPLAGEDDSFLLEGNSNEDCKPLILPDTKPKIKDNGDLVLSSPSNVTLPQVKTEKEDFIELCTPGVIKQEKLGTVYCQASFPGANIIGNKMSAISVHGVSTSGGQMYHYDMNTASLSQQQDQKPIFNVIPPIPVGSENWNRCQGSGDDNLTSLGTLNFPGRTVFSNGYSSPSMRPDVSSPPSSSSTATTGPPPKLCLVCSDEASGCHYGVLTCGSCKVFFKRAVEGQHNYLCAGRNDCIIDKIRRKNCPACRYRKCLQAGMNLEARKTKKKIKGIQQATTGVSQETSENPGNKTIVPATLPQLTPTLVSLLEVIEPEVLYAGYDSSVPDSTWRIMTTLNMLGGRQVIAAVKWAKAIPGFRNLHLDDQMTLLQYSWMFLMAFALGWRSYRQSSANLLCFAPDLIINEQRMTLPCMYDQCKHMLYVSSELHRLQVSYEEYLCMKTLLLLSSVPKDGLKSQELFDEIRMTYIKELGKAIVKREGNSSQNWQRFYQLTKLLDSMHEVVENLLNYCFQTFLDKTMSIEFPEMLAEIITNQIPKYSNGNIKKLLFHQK
Known IC50 of a selection of compounds
Just the number in nM, nothing appended.

- Compound: "O=c1[nH]c(C2CC=C(c3ccc(C(F)(F)F)c(Cl)c3)CC2)c(Cc2ccccc2)c(=O)[nH]1 (stereo not shown) [Example 69]"
  IC50 / nM: 3420
- Compound: "O=c1[nH]c(C2CC=C(c3ccc(Cl)c(F)c3F)CC2)c(Cc2ccccc2)c(=O)[nH]1 (stereo not shown) [Example 83]"
  IC50 / nM: 38.3
- Compound: "Cn1ncc2ccc(C3=CCC(c4[nH]c(=O)[nH]c(=O)c4Cc4ccccc4)CC3)cc21 (stereo not shown) [Example 57]"
  IC50 / nM: 266
- Compound: "CCOc1ccc(C2=CCC(c3[nH]c(=O)[nH]c(=O)c3Cc3ccccc3)CC2)c(Cl)c1 (stereo not shown) [Example 82]"
  IC50 / nM: 4.4
- Compound: "O=c1[nH]c(C2CC=C(c3ccc(OC4CC4)cc3Cl)CC2)c(Cc2ccccc2)c(=O)[nH]1 (stereo not shown) [Example 93]"
  IC50 / nM: 10

Prompt: Supply reported IC50 belonging to this compound: CCS(=O)(=O)c1ccc(C2=CCC(c3[nH]c(=O)[nH]c(=O)c3Cc3ccccc3)CC2)c(Cl)c1 (stereo not shown) [Example 107]
Response: 2.8

Prompt: Supply reported IC50 belonging to this compound: CN(C)S(=O)(=O)c1cc(F)c(C2=CCC(c3[nH]c(=O)[nH]c(=O)c3Cc3ccccc3)CC2)c(F)c1 (stereo not shown) [Example 104]
Response: 3160

----------
# Procedure details: Rat pharmacokinetics (PK) studies, oral gavage cassette
# Type: in vivo, male Sprague Dawley rats
# Assay context: male, Sprague Dawley (or equivalent), rat plasma, nominal dose 1.25 mg/kg
Quantity kind: Cmax (ng/mL)
Just the number in ng/mL, nothing appended.

Recorded results for 3 compounds are shown here.
- Compound: "O=c1[nH]c(C2CC=C(c3cccnc3C(F)(F)F)CC2)c(Cc2ccccc2)c(=O)[nH]1 (stereo not shown)"
  Cmax (ng/mL): 63
- Compound: "O=c1[nH]c(C2CC=C(c3ccc(Cl)cc3C(F)(F)F)CC2)c(Cc2ccccc2)c(=O)[nH]1 (stereo not shown)"
  Cmax (ng/mL): 196
- Compound: "COc1cc(C#N)ccc1C1=CCC(c2[nH]c(=O)[nH]c(=O)c2Cc2ccccc2)CC1 (stereo not shown)"
  Cmax (ng/mL): 83.6

Prompt: Supply reported Cmax belonging to this compound: N#Cc1ccc(C2=CCC(c3[nH]c(=O)[nH]c(=O)c3Cc3ccccc3)CC2)c(Cl)c1 (stereo not shown)
Response: 114

----------
Known AUC(0-t) of a selection of compounds
# Procedure details: Rat pharmacokinetics (PK) studies, oral gavage cassette
# Assay type: in vivo, male Sprague Dawley rats
# Assay context: male, Sprague Dawley (or equivalent), rat plasma, nominal dose 1.25 mg/kg, read-out: AUC0-24
Just the number in ng·h/mL, nothing appended.

Prompt: Supply reported AUC(0-t) belonging to this compound: O=c1[nH]c(C2CC=C(c3cccnc3C(F)(F)F)CC2)c(Cc2ccccc2)c(=O)[nH]1 (stereo not shown) [Example 14]
Response: 188

Prompt: Supply reported AUC(0-t) belonging to this compound: N#Cc1ccc(C2=CCC(c3[nH]c(=O)[nH]c(=O)c3Cc3ccccc3)CC2)c(Cl)c1 (stereo not shown) [Example 1]
Response: 991

Prompt: Supply reported AUC(0-t) belonging to this compound: COc1cc(C#N)ccc1C1=CCC(c2[nH]c(=O)[nH]c(=O)c2Cc2ccccc2)CC1 (stereo not shown) [Example 20]
Response: 375

Prompt: Supply reported AUC(0-t) belonging to this compound: O=c1[nH]c(C2CC=C(c3ccc(Cl)cc3C(F)(F)F)CC2)c(Cc2ccccc2)c(=O)[nH]1 (stereo not shown) [Example 10]
Response: 3040

----------
Known log10 of Ki of a selection of compounds
# Tgt: UniProt P04150
# Procedure details: Hep G2 TAT assay: induction of TAT by dexamethasone in HepG2 cells
# Method: Glucocorticoid mediated activation of TAT occurs by transactivation of glucocorticoid response elements in the TAT promoter by glucocorticoid receptor-agonist complex. TAT activity was measured as outlined in the literature by A. Ali et al., J. Med. Chem., 2004, 47, 2441-2452. […] HepG2 cells were then lysed with 30 μl of cell lysis buffer containing a protease inhibitor cocktail for 15 minutes at 4° C. […] The TAT activity product was measured by absorbance at λ 340 nm. […]
Please keep in mind that the values are log10 of Ki expressed in µM.

Recorded results for 4 compounds are shown here.
- Compound: "O=c1[nH]c(C2CC=C(c3cccnc3C(F)(F)F)CC2)c(Cc2ccccc2)c(=O)[nH]1 (stereo not shown) [Example 14]"
  log10 of Ki: -1.39
- Compound: "O=c1[nH]c(C2CC=C(c3ccc(Cl)cc3C(F)(F)F)CC2)c(Cc2cccc(C(F)(F)F)c2)c(=O)[nH]1 (stereo not shown) [Example 114]"
  log10 of Ki: -0.92
- Compound: "O=C(c1ccc(C2=CCC(c3[nH]c(=O)[nH]c(=O)c3Cc3ccccc3)CC2)c(Cl)c1)N1CCCC1 (stereo not shown) [Example 42]"
  log10 of Ki: -1.48
- Compound: "N#Cc1cccc(C2=CCC(c3[nH]c(=O)[nH]c(=O)c3Cc3ccccc3)CC2)c1 (stereo not shown) [Example 33]"
  log10 of Ki: -0.13

Prompt: Supply reported log10 of Ki belonging to this compound: Cc1nn(C)cc1C1=CCC(c2[nH]c(=O)[nH]c(=O)c2Cc2ccccc2)CC1 (stereo not shown) [Example 58]
Response: -0.28

Prompt: Supply reported log10 of Ki belonging to this compound: CS(=O)(=O)c1ccc(C2=CCC(c3[nH]c(=O)[nH]c(=O)c3Cc3cccc(F)c3F)CC2)c(F)c1 (stereo not shown) [Example 115]
Response: -1.07

Prompt: Supply reported log10 of Ki belonging to this compound: O=c1[nH]c(C2CC=C(c3ccc(F)cc3C(F)(F)F)CC2)c(Cc2ccccc2)c(=O)[nH]1 (stereo not shown) [Example 34]
Response: -1.64

Prompt: Supply reported log10 of Ki belonging to this compound: N#Cc1cc(C(F)(F)F)ccc1C1=CCC(c2[nH]c(=O)[nH]c(=O)c2Cc2ccccc2)CC1 (stereo not shown) [Example 38]
Response: -1.12
